From: PubChem BioAssay (NCI)

# Tested on: OVCAR-3 ovarian
# assay.procedure: NCI-60 one-dose screen, 48 h
# details: 10 µM unless noted
This is part of a sample that, as a whole, favours compounds with a hit. Of some 83,000 tested, about 20% had one in any assay. Active and inactive are the calls of the source. How the source made its calls: active means growth percent below 10; inactive means the rest.
Give your call using only these classes: yes (1) for active, no (0) for inactive

>>> label("COc1ccc2c3c(c4ccccc4cc13)C(=O)N(CCN(C)CCN)C2=O")
"yes (1)"
>>> label("COc1ccc(-c2c(-c3nc4ccc(N5CCOCC5)cc4[nH]3)[nH]c(C)c2C(C)=O)cc1")
"no (0)"
>>> label("COc1ccc(C2NC(=O)Nc3ccccc32)c(OC)c1 (stereo not given)")
"no (0)"
>>> label("O=S(=O)(NCCNc1cc(-c2cn(-c3ccccc3)nc2-c2cccc(O)c2)ccn1)c1ccc(Br)cc1")
"no (0)"

// query Given Clc1cc(Cl)cc(Nc2ccc3c(OCCCN4CCOCC4)cccc3n2)c1 , state the outcome it received in this test.
// result no (0)

// query Given COc1cnc2c(c1)C(=O)c1c-2n(CCCNC(C)C)c(=O)c2cc([N+](=O)[O-])ccc12 , state the outcome it received in this test.
// result yes (1)

// query Given COc1ccc(O)c(-c2cc(-c3ccc(Cl)cc3)c(C#N)c(=O)[nH]2)c1 , state the outcome it received in this test.
// result no (0)

---

# Tested on: SW-620 colon
# assay.procedure: NCI-60 one-dose screen, 48 h (100 = growth as untreated, 0 = no growth, -100 = all killed)
# details: 10 µM unless noted
# Experimental: Growth inhibition of the SW-620 human tumor cell line is measured as a screen for anti-cancer activity. Cells are grown in 96 well plates and exposed to the test compound for 48 hours. Compounds are tested at a single concentration, which is 10^-5 M for most compounds. The reported endpoint is percent growth (GI% or GIPRCNT), where numbers from 0 - 100% represent growth inhibition, and numbers from -100% - 0 represent cell death. For example, a value of 40 represents 60% growth inhibition. […]
Compounds without any hit were thinned out: in the full panel of roughly 83,000, 20% have a hit.
growth by entry:
Answer format: numeric, % implied, no suffix.

The following molecules have reported results that may help.
>>> quantitative_result("c1ccc(-c2nc(Nc3ccc(-c4nc5ccccc5[nH]4)cc3)nc(N3CCOCC3)n2)cc1")
-82.9
>>> quantitative_result("CCc1ccccc1NC(=O)c1sc2nc3c(cc2c1N)CCCC3")
26.7
>>> quantitative_result("Cc1cc(C)c(NC(=O)c2sc3nc4c(cc3c2N)CCCC4)c(C)c1")
30.5
>>> quantitative_result("c1ccc2c(-c3nc(-c4c[nH]c5ncccc45)cs3)c[nH]c2c1")
103
>>> quantitative_result("Cn1cc(-c2csc(-c3cn(C(=O)OC(C)(C)C)c4ccc(Br)cc34)n2)c2cccnc21")
90.4
>>> quantitative_result("CC(CNc1nc(Nc2ccc(Cl)c(Cl)c2)nc(C(Cl)(Cl)Cl)n1)N(C)C (stereo not given)")
-74.8
>>> quantitative_result("Cn1cc(-c2csc(-c3cn(C(=O)OC(C)(C)C)c4ccccc34)n2)c2cccnc21")
36.1
>>> quantitative_result("O=C(/C(=C(\\C(=O)c1ccccc1)c1ccccc1)c1ccccc1)c1ccccc1")
38.5
>>> quantitative_result("COc1ccc(-n2c(/C=C/c3ccc(O)c(OC)c3)cc(/C=C/c3ccc(O)c(OC)c3)nc2=O)cc1")
29.8

Alright, here's another molecule for you.
// query State growth on SW-620 colon. Entry: CC(=O)Oc1ccccc1C(=O)/C=C/c1cccc([N+](=O)[O-])c1
// result 43
